The reported numbers originate from patent US8283358B2.

# pIC50 values compiled below
Biological target: gamma-secretase (partially purified extract of IMR-32 cell membranes; substrate MBP-C125 Swe fusion protein, cleavage at the Aβ40 site) (Homo sapiens, UniProt P49768)
Construct: a partially purified extract of IMR-32 cell membranes as the gamma-secretase enzyme preparation; endogenous in cells; host or cells: IMR-32 cell membranes, partially purified extract
Experiment: Gamma-secretase APP enzyme assay (Example A)
Assay type: biochemical
Details: class symbols; assay described in Example A; read-out: γAPP IC50
Source text: The gamma-secretase APP enzyme assay was designed to measure the specific proteolytic cleavage of an APP substrate (MBP-C125 Swe fusion protein) at the Aβ40 site. […] This assay involved two steps beginning with the enzymatic reaction generating a cleavage product that was captured with an immobilized antibody specific for the neo-epitope Aβ40 site. The captured cleavage product was then detected in a sandwich ELISA assay with a biotinylated reporter antibody that is specific to Aβ(17-28). […]
pIC50: −log10 of the molar value.

Consider the reported pIC50 for these compounds:
| compound | measured_property | data_value |
| --- | --- | --- |
| O=S(=O)(c1ccc(C(F)(F)F)cc1)N1C2Cc3[nH]ncc3C1c1ncccc12 (single isomer, unassigned) [compound 102] | pIC50 | 6.00 to 6.30 |
| O=S(=O)(c1ccc(C(F)(F)F)nc1)N1C2Cc3n[nH]cc3C1c1nc(Br)ccc12 (single isomer, unassigned) [compound 249] | pIC50 | < 6.00 |
| Cn1ncc(C2CC3Cc4[nH]ncc4C(C2)N3S(=O)(=O)c2ccc(Cl)cc2)n1 (stereo not shown) | pIC50 | 6.30 to 7.00 |

I would be grateful if you could share the reported pIC50 for O=S(=O)(c1ccc(C(F)(F)F)cc1)N1C2Cc3c(-c4ccc(F)cc4)cccc3C1Cc1[nH]ncc12 (racemic) .
> 7.00

* * *

target: gamma-secretase (partially purified extract of IMR-32 cell membranes; substrate MBP-C125 Swe fusion protein, cleavage at the Aβ40 site) (Homo sapiens, UniProt P49768); construct: a partially purified extract of IMR-32 cell membranes as the gamma-secretase enzyme preparation; endogenous in cells; host or cells: IMR-32 cell membranes, partially purified extract; assay: Gamma-secretase APP enzyme assay (Example A); format: biochemical; settings: class symbols; assay described in Example A; read-out: γAPP IC50
pIC50: −log10 of the molar value.
# pIC50 values compiled below

| compound | pIC50 |
| --- | --- |
| O=S(=O)(c1ccc(C(F)(F)F)nc1)N1C2Cc3[nH]ncc3C1c1c(Cl)cccc12 (single isomer, unassigned) [compound 232] | 6.00 to 6.30 |
| O=C1COCCN1c1ccc(C2CC3Cc4[nH]ncc4C(C2)N3S(=O)(=O)c2ccc(C(F)(F)F)cc2)cc1 (racemic) | 6.00 to 6.30 |
| O=S(=O)(c1ccc(C(F)(F)F)nc1)N1C2Cc3n[nH]cc3C1c1c(F)ccc(F)c12 (stereo not shown) [compound 131] | > 7.00 |
| O=S(=O)(c1ccc(C(F)(F)F)cc1)N1C2c3c[nH]nc3C(F)(F)C1c1c(F)cccc12 (stereo not shown) | > 7.00 |
| O=S(=O)(c1ccc(C(F)(F)F)cc1)N1C2Cc3n[nH]cc3C1CC(c1cccc(Br)c1)C2 (stereo not shown) | > 7.00 |

I would be grateful if you could share the reported pIC50 for O=S(=O)(c1ccc(C(F)(F)F)nc1)N1C2Cc3[nH]ncc3C1c1cc(O)ccc12 (racemic) .
> 7.00
